pKd for ALK tyrosine kinase receptor (Homo sapiens), merged from several publications.
Give bare numbers, as −log10 of the molar value.

COc1cc(N2CCC(O)CC2)ccc1Nc1cc(Nc2ccccc2S(=O)(=O)C(C)C)c2cc[nH]c2n1
7.68
C=CC(=O)Nc1cccc(Oc2nc(Nc3ccc(N4CCN(C)CC4)cc3OC)ncc2Cl)c1
6.52
C[C@@H](Nc1ccc2[nH]nc(/C=C/c3ccccn3)c2c1)c1cc(F)cc(F)c1
6.82

Here's the next entry for you.
IN: Could you share which pKd value was measured for `CCOc1cc(C2CCN(C)CC2)ccc1Nc1ncc2c(n1)N(Cc1cc(C)cs1)[C@H](CC)C(=O)N2C` ?
OUT: 7.05
